Assay System: Mannose-6-phosphate isomerase (Homo sapiens)
Assay Explanation: inhibitors of human PMI, primary screen, biochemical, fluorescence intensity, coupled assay (AID 1209);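 further: plate controls were DMSO vehicle for no effect and wells lacking substrate for full effect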
Stated Conditions: purified PMI enzyme, at 20 µM, stronger effect = higher value
In all, about 190,000 compounds went through this assay and about 810 (0.43%) were called active. This is one part of a sample in which actives are shown more often than they occur.
Measurement Label: inhibition (%)
Express your answer in %, writing the number without its unit.

Some entries whose results are on file:
Compound	Assay System	Measurement Label	Value Observed
CCOC(=O)c1c(C)oc2c1c(C=NCCC(=O)O)c(O)c1ccccc12	Mannose-6-phosphate isomerase (Homo sapiens)	inhibition	77.4
Cc1cccc(C(C)C)c1NC(=O)COC(=O)Cc1ccsc1	Mannose-6-phosphate isomerase (Homo sapiens)	inhibition	9
CCn1ncc(C2=NOC(C(=O)Nc3cccc(O)c3)C2)c1C (stereo unspecified)	Mannose-6-phosphate isomerase (Homo sapiens)	inhibition	-18.7
CC(C)c1ccc(CN2CC(C(=O)O)CC2=O)cc1 (stereo unspecified)	Mannose-6-phosphate isomerase (Homo sapiens)	inhibition	-7
CCOC(=O)c1c(C)oc2c1cc(O)c1ccccc12	Mannose-6-phosphate isomerase (Homo sapiens)	inhibition	13.4
NC(=O)NC(=O)CC1S/C(=N/N=C2\CSC(=O)N2)NC1=O (stereo unspecified)	Mannose-6-phosphate isomerase (Homo sapiens)	inhibition	48.8
CC(C(=O)Nc1ncccn1)(c1ccccc1)c1ccccc1	Mannose-6-phosphate isomerase (Homo sapiens)	inhibition	0.1
Cc1cc2nn(-c3cccc4ccccc34)nc2cc1N	Mannose-6-phosphate isomerase (Homo sapiens)	inhibition	77.5
COc1ccc(S(=O)(=O)N2Cc3ccccc3CC2C(=O)O)cc1OC (stereo unspecified)	Mannose-6-phosphate isomerase (Homo sapiens)	inhibition	-6.9
CNCCOc1ccccc1C(C)(C)C	Mannose-6-phosphate isomerase (Homo sapiens)	inhibition	5.9

Now for the compound whose inhibition we want.
Ask | Request the reported inhibition associated with O=C(NCc1ccncc1)c1cncc(Br)c1
Reply | 2

###

Assay System: Mannose-6-phosphate isomerase (Homo sapiens)
Assay Explanation: inhibitors of human PMI, primary screen, biochemical, fluorescence intensity, coupled assay (AID 1209);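 further: plate controls were DMSO vehicle for no effect and wells lacking substrate for full effect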
Stated Conditions: purified PMI enzyme, at 20 µM, stronger effect = higher value
Among all 190,000 compounds or so, about 810 (0.43%) were called active. Shown is part of a subset that was picked to be rich in actives.
Assign class by inhibition: not lower than 10% means Fulfilled; lower than 10% means Not fulfilled.

Molecule	Assigned Category
CCOC(=O)C1(C)C=C(Nc2ccc(OCC)cc2)C(=O)N1c1ccccc1 (stereo unspecified)	Fulfilled
Cc1[nH]nc2c1C(c1ccco1)C(C#N)=C(N)O2 (stereo unspecified)	Not fulfilled
O=C1CNC(=O)N1CC(O)Cn1c2ccccc2c2ccccc21 (stereo unspecified)	Not fulfilled
O=C(/C=C/c1ccccc1)Nc1cccc(S(=O)(=O)Nc2ccccc2F)c1	Fulfilled
CC(=O)N1CCc2cc(S(=O)(=O)CCC(=O)N3CCc4ccccc4C3)ccc21	Not fulfilled

Ask | Evaluate N#CC(c1ccc(F)cc1)c1ccc(C(=O)c2ccc(F)cc2)cc1 (stereo unspecified) : inhibition at minimum 10%?
Reply | Not fulfilled

Ask | Evaluate CC(=O)c1ccc(Nc2cc(C)nc3ccc(C)cc23)cc1 : inhibition at minimum 10%?
Reply | Fulfilled

Ask | Evaluate O=C(c1ccc([N+](=O)[O-])cc1)N1CCN(C(=O)c2ccco2)CC1 : inhibition at minimum 10%?
Reply | Not fulfilled

Ask | Evaluate CCCCNC(=O)CSc1nc2ccccc2n1S(=O)(=O)c1ccc(Cl)cc1 : inhibition at minimum 10%?
Reply | Not fulfilled

Ask | Evaluate NC(=S)Nn1c(CCC(=O)O)ccc1-c1ccccc1 : inhibition at minimum 10%?
Reply | Fulfilled

Values from PubChem BioAssay AID1209
